# test: Pharmacokinetics of JHG components in pulmonary fibrosis (PF) model rats after intragastric administration of JHGs (plasma, Orbitrap Fusion MS)
# Type: in vivo, Sprague Dawley (SD) rats
# settings: male, Sprague Dawley, rat, plasma, po, 11.41 g/kg/day; PF model rats, JHGs medium dose 11.41 g/kg/d; read-out: MRT(0-t)
Consider the following molecules; for each one, report its MRT last.
Numbers only, in h.

Can you give me MRT last for all of these, one by one?
1. COc1ccc(C(C)=O)c(O)c1 [Paeonol]
2. COc1ccc(-c2cc(=O)c3c(OC)c(OC)c(OC)c(OC)c3o2)cc1OC [Nobiletin]
3. CC1=C2CC3C(CC(=O)C4CC(O)CCC43C)C2CCC12OC1CC(C)CNC1C2C (stereo not drawn) [Peimisine]

Reply:
9.7
9.13
7.92
